Target: human TMEM16A (TMEM16Aabc variant) (Homo sapiens, UniProt Q5XXA6, DEL476-501)
Sequence (Q5XXA6 with tags, fused parts or gaps isoform Q5XXA6-5 DEL539-564): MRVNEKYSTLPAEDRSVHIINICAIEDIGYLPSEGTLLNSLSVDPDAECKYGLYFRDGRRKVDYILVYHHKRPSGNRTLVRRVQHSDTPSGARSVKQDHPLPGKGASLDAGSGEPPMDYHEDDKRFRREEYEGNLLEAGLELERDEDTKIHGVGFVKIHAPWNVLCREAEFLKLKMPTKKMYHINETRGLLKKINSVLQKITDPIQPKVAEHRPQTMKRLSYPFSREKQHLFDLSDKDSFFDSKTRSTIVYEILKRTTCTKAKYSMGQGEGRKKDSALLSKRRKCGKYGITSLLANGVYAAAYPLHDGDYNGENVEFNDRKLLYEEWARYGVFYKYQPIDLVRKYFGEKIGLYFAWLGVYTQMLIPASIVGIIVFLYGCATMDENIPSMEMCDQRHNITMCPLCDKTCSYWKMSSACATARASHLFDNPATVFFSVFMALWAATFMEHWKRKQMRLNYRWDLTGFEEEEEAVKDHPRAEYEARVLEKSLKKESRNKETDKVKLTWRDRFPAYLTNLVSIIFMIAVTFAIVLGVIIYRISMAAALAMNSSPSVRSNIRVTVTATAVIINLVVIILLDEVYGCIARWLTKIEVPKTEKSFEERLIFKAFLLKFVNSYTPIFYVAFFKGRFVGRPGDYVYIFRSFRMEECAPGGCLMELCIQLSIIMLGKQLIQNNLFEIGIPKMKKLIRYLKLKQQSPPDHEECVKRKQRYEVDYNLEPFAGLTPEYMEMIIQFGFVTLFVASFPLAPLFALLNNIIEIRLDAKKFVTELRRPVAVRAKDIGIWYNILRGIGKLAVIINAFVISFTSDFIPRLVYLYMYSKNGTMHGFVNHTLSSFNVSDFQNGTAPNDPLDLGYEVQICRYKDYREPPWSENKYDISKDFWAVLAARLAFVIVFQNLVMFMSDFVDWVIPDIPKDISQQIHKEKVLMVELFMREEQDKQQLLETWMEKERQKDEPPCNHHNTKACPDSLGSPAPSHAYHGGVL
Test: Automated whole-cell patch clamp (Qpatch) TMEM16A potentiator assay in FRT cells stably expressing human TMEM16A
Format: cell-based
Details: 3.33 μM test compound, percentage increase of baseline TMEM16A current at +70 mV, intracellular calcium at EC20, read-out: % Potentiation @ 3.33 μM Avg
Please go through the items and note down their activation at 3.33 µM.
Provide only the numeric value, understood in %.

Would you mind telling me what activation at 3.33 µM value was observed for CC(C)(C)OC(=O)NCc1nc2cc(C(=O)NCC3CCCCCC3)ccc2[nH]1 ? 110

Would you mind telling me what activation at 3.33 µM value was observed for C[C@@H](NC(=O)c1ccc2[nH]c(Cc3ccccc3)nc2c1)C1CCCCC1 ? 153

Would you mind telling me what activation at 3.33 µM value was observed for CC(C)(C)OC(=O)NCC1(CC(=O)Nc2ccc3[nH]c(Cc4ccccc4)nc3c2)CCCCC1 ? 215

Would you mind telling me what activation at 3.33 µM value was observed for COCCN(Cc1nc2ccc(NC(=O)CC3C4CC5CC(C4)CC3C5)cc2[nH]1)C(=O)OC(C)(C)C (centres unmarked) ? 190

Would you mind telling me what activation at 3.33 µM value was observed for CCN(Cc1nc2ccc(NC(=O)CC3C4CC5CC(C4)CC3C5)cc2[nH]1)C(=O)OC(C)(C)C (centres unmarked) ? 155

Would you mind telling me what activation at 3.33 µM value was observed for O=C(Nc1ccc2[nH]c(Cc3ccccc3)nc2c1)C12CC3CC(CC(C3)C1)C2 ? 58.5

Would you mind telling me what activation at 3.33 µM value was observed for O=C(CC12CC3CC(CC(C3)C1)C2)Nc1ccc2[nH]c(Cc3cccc(O)c3)nc2c1 ? 162

Would you mind telling me what activation at 3.33 µM value was observed for O=C(CC1C2CC3CC(C2)CC1C3)Nc1ccc2[nH]c(C(O)c3ccccc3)nc2c1 (centres unmarked) ? 58.9

Would you mind telling me what activation at 3.33 µM value was observed for O=C(NCC1CCCCC1)c1ccc2nc(Cc3cccc(O)c3)[nH]c2c1 ? 81.3

Would you mind telling me what activation at 3.33 µM value was observed for CC1(CNC(=O)c2ccc3[nH]c(Cc4ccccc4)nc3c2)CCCCC1 ? 124

Would you mind telling me what activation at 3.33 µM value was observed for C[C@H](c1ccccc1)c1nc2cc(NC(=O)CC3C4CC5CC(C4)CC3C5)ccc2[nH]1 (some centres unmarked) ? 143

Would you mind telling me what activation at 3.33 µM value was observed for O=C(NCC1CCCCCC1)c1cc2nc(Cc3cccc(O)c3)[nH]c2cc1F ? 95.8

Would you mind telling me what activation at 3.33 µM value was observed for O=C(NCC1CCCCCC1)c1cc(F)c2[nH]c(Cc3cccc(O)c3)nc2c1 ? 114

Would you mind telling me what activation at 3.33 µM value was observed for O=C(NCC1CCCCCC1)c1ccc2[nH]c(Cc3cccc(O)c3)nc2c1F ? 90.2

Would you mind telling me what activation at 3.33 µM value was observed for COc1ncccc1Cc1nc2cc(NC(=O)CC34CC5CC(CC(C5)C3)C4)ccc2[nH]1 ? 148

Would you mind telling me what activation at 3.33 µM value was observed for CC(C)(C)C(C)(C)NC(=O)c1ccc2[nH]c(Cc3ccccc3)nc2c1 ? 89.5

Would you mind telling me what activation at 3.33 µM value was observed for O=C(CC1C2CC3CC(C2)CC1C3)Nc1ccc2[nH]c(Cc3cccc(O)c3)nc2c1 (centres unmarked) ? 126

---

Biological target: human TMEM16A (TMEM16Aabc variant) (Homo sapiens, UniProt Q5XXA6, DEL476-501)
Test: Automated whole-cell patch clamp (Qpatch) TMEM16A potentiator assay in FRT cells stably expressing human TMEM16A
Type: cell-based
Conditions: 3.33 μM test compound, percentage increase of baseline TMEM16A current at +70 mV, intracellular calcium at EC20, read-out: % Potentiation @ 3.33 μM Avg
metricName: activation at 3.33 µM (%)
Provide only the numeric value, understood in %.

Would you mind telling me what activation at 3.33 µM value was observed for O=C(CC1CCCCC1)Nc1ccc2[nH]c(Cc3ccccc3)nc2c1 ? 127

Would you mind telling me what activation at 3.33 µM value was observed for CC1(CC(=O)Nc2ccc3[nH]c(Cc4cccc(O)c4)nc3c2)CCCCC1 ? 105

Would you mind telling me what activation at 3.33 µM value was observed for CC(C)(C)c1nc2cc(C(=O)NCc3cc(Cl)ccc3O)ccc2[nH]1 ? 52.1

Would you mind telling me what activation at 3.33 µM value was observed for C[C@@H](c1ccccc1)c1nc2cc(NC(=O)CC3C4CC5CC(C4)CC3C5)ccc2[nH]1 (stereo partly shown) ? 157

Would you mind telling me what activation at 3.33 µM value was observed for O=C(NCC12CC3CC(CC(C3)C1)C2)c1ccc2[nH]c(Cc3ccccc3)nc2c1 ? 146

Would you mind telling me what activation at 3.33 µM value was observed for O=C(CC1(O)C2CC3CC(C2)CC1C3)Nc1ccc2[nH]c(Cc3ccccc3)nc2c1 (stereo not shown) ? 83.9

Would you mind telling me what activation at 3.33 µM value was observed for O=C(NCC1CCCCCC1)c1ccc2[nH]c(CC3(O)CCCCC3)nc2c1 ? 135

Would you mind telling me what activation at 3.33 µM value was observed for O=C(CC1CCCCC1)Nc1ccc2[nH]c(-c3ccccc3)nc2c1 ? 74

Would you mind telling me what activation at 3.33 µM value was observed for O=C(NCC1CCCCC1)c1ccc2[nH]c(Cc3ccccc3)nc2c1 ? 111

Would you mind telling me what activation at 3.33 µM value was observed for CC(C)(C)CNC(=O)c1ccc2[nH]c(Cc3ccccc3)nc2c1 ? 144

Would you mind telling me what activation at 3.33 µM value was observed for Cc1noc(C)c1Cc1nc2cc(NC(=O)CC3C4CC5CC(C4)CC3C5)ccc2[nH]1 (stereo not shown) ? 116

Would you mind telling me what activation at 3.33 µM value was observed for CC(C)(C)OC(=O)NCc1nc2cc(NC(=O)CC34CC5CC(CC(C5)C3)C4)ccc2[nH]1 ? 114

Would you mind telling me what activation at 3.33 µM value was observed for O=C(CC1CCC(F)(F)CC1)Nc1ccc2[nH]c(Cc3ccccc3)nc2c1 ? 47.6
